Test: Inhibition of 3 nM [3H]clonidine binding to rat kidney membrane imidazoline receptor I-1 in presence of rauwolscine
pIC50: −log10 of the molar value.

smiles-code: N#CSc1ccc2oc(C3=NCCN3)cc2c1
pIC50: 5.09

Origin of values: BindingDB's records for doi:10.1016/s0960-894x(00)00062-7
